The values you see were collected from patent US20220403048A1.

Target: T1, ARG2 (Homo sapiens, UniProt P78540)
T1 sequence (P78540 23-354): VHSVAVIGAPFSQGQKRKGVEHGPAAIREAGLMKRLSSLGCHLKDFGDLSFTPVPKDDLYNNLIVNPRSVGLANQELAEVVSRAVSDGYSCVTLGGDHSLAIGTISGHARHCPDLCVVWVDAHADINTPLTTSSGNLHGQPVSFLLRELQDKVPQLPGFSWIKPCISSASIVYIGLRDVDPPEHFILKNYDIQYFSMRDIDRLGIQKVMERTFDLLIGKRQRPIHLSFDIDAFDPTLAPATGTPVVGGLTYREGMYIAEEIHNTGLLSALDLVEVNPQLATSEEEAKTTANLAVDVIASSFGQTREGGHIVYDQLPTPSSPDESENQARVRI
Test: T cell proliferation assay (BrdU, 96 hours) with exogenous ARG2, improved variant IgGs
Assay type: cell-based
Conditions: In Absence of rhARG2; hIgG1; top conc 2 μM; n=2
Measure name: Maximum % Proliferation (%)
Provide the reading as a plain figure in %.

Below are worked cases with known answers.
Maximum % Proliferation in this record for C0021158: anti-ARG2 antibody, second generation lead, VH SEQ ID NO: 272, VL SEQ ID NO: 277 (antibody, listed as Homo sapiens, V domains shown, C0021158) VH: EVQLLESGGGLVQPGGSLRLSCAASGFTFRYEVAAWVRQAPGKGLEWVSAISGPIPKGYYADSVKGRFTISRDNSKNTLYLQMNSLRAEDTAVYYCARLRADLGLYMDLWGRGTLVTVPS VL: QSVLTQPPSVSAAPGQKVTISCSGSSSNIGNHYVSWYQQLPGTAPKLLIYDNSERTAGVPDRFSGSKSGTSATLGITGLQTGDEADYYCGTWDELTSNLVFGGGTKLTVL : 94

Maximum % Proliferation in this record for C0021180: anti-ARG2 antibody, VH SEQ ID NO: 332, VL SEQ ID NO: 337 (antibody, listed as Homo sapiens, V domains shown, C0021180) VH: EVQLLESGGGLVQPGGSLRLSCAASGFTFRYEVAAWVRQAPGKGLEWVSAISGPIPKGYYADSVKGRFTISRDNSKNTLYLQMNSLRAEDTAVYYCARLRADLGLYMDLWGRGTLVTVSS VL: QSVLTQPPTVSAAPGRKVTISCSGSSSNIGDHHVSWYQQLPGAAPKLLIYDTDHMASGIPDRFSGSRSGTSATLGITGLQTGDEADYYCGTWDSSLSALVFGGGTKLTVL : 96

Maximum % Proliferation in this record for C0021061: anti-ARG2 antibody, first generation lead, VH SEQ ID NO: 62, VL SEQ ID NO: 67 (antibody, listed as Homo sapiens, V domains shown, C0021061) VH: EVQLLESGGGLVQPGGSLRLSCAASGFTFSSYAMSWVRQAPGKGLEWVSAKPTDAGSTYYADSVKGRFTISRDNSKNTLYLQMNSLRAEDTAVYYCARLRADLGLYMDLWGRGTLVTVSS VL: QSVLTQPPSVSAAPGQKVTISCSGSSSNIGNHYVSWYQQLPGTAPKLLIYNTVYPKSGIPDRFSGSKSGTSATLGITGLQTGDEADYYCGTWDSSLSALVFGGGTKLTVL : 93

Field: next molecule
Maximum % Proliferation in this record for C0021177: anti-ARG2 antibody, VH SEQ ID NO: 322, VL SEQ ID NO: 327 (antibody, listed as Homo sapiens, V domains shown, C0021177) VH: EVQLLESGGGLVQPGGSLRLSCAASGFTFRYEVAAWVRQAPGKGLEWVSAISGPAPKGYYADSVKGRFTISRDNSKNTLYLQMNSLRAEDTAVYYCARLRADLGLYMDLWGRGTLVTVSS VL: QSELTQPPTASAAPGQKVTISCSGSSSNIGNHYVSWYQQLPGTAPKLLIYDTTVLSSGIPDRFSGSKSGTSATLGITGLQTGDEADYYCGTWDELTSNLVFGGGTKLTVL : 90
